tested on: Bacteroides caccae; test: growth AUC relative to DMSO control (median of replicates) (fraction); higher = more growth (less inhibition), active = hit call of the paper; conditions: 20 µM; 24 h
parameterMeasured: growth AUC
// return a plain number; no unit text

{"compound": "Nc1ccc(Cc2ccc(N)c(Cl)c2)cc1Cl", "experimentalValue": 0.994}
{"compound": "CCC(C)c1cc([N+](=O)[O-])cc([N+](=O)[O-])c1OC(=O)C=C(C)C (stereo not given)", "experimentalValue": 0.986}
{"compound": "CC1(C)C(C=C(Cl)Cl)C1C(=O)OC(C#N)c1cccc(Oc2ccccc2)c1 (mixture of isomers)", "experimentalValue": 0.963}
{"compound": "COC(C)(C)CCCC(C)C/C=C/C(C)=C/C(=O)OC(C)C (stereo not given)", "experimentalValue": 1}

Asked: Request body: readout growth AUC, system Bacteroides caccae, query CCCCC(C#N)(Cn1cncn1)c1ccc(Cl)cc1 (stereo not given) . Return the value.
Given back: 1.02

Asked: Then what about the compound COC(=O)C(C)N(C(=O)Cc1ccccc1)c1c(C)cccc1C (stereo not given) ?
Given back: 0.985

Asked: Then what about the compound `O=C(NC(=O)c1ccccc1Cl)Nc1ccc(OC(F)(F)F)cc1` ?
Given back: 0.915

Asked: Then what about the compound CCC(C)(NC(=O)c1cc(Cl)c(C)c(Cl)c1)C(=O)CCl (stereo not given) ?
Given back: 0.949

Asked: Then what about the compound `COc1cc(C)c(C(=O)c2c(OC)ccc(Br)c2C)c(OC)c1OC` ?
Given back: 1

Asked: Then what about the compound COP(=S)(NC(C)C)Oc1ccccc1C(=O)OC(C)C (stereo not given) ?
Given back: 0.991

====

test system: Odoribacter splanchnicus; assay: growth AUC relative to DMSO control (median of replicates) (fraction); higher = more growth (less inhibition), active = hit call of the paper; details: 20 µM; 24 h;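 active = AUC reduced over 20% with Padj below 0.05 in at least 2 of 3 replicates; inactive = otherwise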
The reply should be one of these categories: active, inactive

{"molecule": "COC(=O)Nc1cccc(OC(=O)Nc2cccc(C)c2)c1", "testedTarget": "Odoribacter splanchnicus", "qualitativeLabel": "inactive"}
{"molecule": "c1coc(-c2nc3ccccc3[nH]2)c1", "testedTarget": "Odoribacter splanchnicus", "qualitativeLabel": "inactive"}
{"molecule": "CN(C)C(=O)Nc1cccc(C(F)(F)F)c1", "testedTarget": "Odoribacter splanchnicus", "qualitativeLabel": "inactive"}

# ---- query molecule ----
Asked: # fetch the recorded call for `Clc1cc(Cl)c(Cl)cc1Cl` here
Given back: inactive

====

test system: Coprococcus comes; assay: growth AUC relative to DMSO control (median of replicates) (fraction); higher = more growth (less inhibition), active = hit call of the paper; conditions: 20 µM; 24 h
parameterMeasured: growth AUC
// return a plain number; no unit text

Sample records with growth AUC:
{"compound": "CCOC(=O)OC1=C(c2cc(C)ccc2C)C(=O)NC12CCC(OC)CC2 (stereo not given)", "experimentalValue": 0.998}
{"compound": "CCC(C)(CC)c1cc(NC(=O)c2c(OC)cccc2OC)on1", "experimentalValue": 1.03}

Asked: Recorded growth AUC for `COCCN(C(=O)CCl)c1c(C)cccc1C` , please?
Given back: 0.983

Asked: Then what about the compound Cc1cc(Cl)ccc1OC(C)C(=O)O (stereo not given) ?
Given back: 0.984

Asked: Then what about the compound `Cl.NC1=NCCN1Cc1ccc(Cl)nc1` ?
Given back: 1.13

Asked: Then what about the compound `COC(=O)c1ccccc1S(=O)(=O)NC(=O)Nc1nc(C)cc(C)n1` ?
Given back: 1

Asked: Then what about the compound CNC(=O)O/N=C(\C)C(C)S(C)(=O)=O (stereo not given) ?
Given back: 1.02

Asked: Then what about the compound `CNC(=O)Oc1cc(C)c(S(C)(=O)=O)c(C)c1` ?
Given back: 0.98

Asked: Then what about the compound `CCC(=O)Nc1ccc(Cl)c(Cl)c1` ?
Given back: 1

Asked: Then what about the compound `O=C(Nc1ccc(F)cc1F)c1cccnc1Oc1cccc(C(F)(F)F)c1` ?
Given back: 0.999

Asked: Then what about the compound `CCOC(=O)/C=C(C)/C=C/C[C@@H](C)CCCC(C)C` ?
Given back: 0.979

Asked: Then what about the compound `CC(C)N(C)S(=O)(=O)NC(=O)c1cc(-n2c(=O)cc(C(F)(F)F)n(C)c2=O)c(F)cc1Cl` ?
Given back: 1.03

Asked: Then what about the compound `CCOP(=S)(OCC)Oc1cc(-c2ccccc2)on1` ?
Given back: 1.03

Asked: Then what about the compound `C/C(=N\NC(=O)Nc1cc(F)cc(F)c1)c1ncccc1C(=O)[O-].[Na+]` ?
Given back: 1.01

Asked: Then what about the compound `O=C(O)C(F)(F)C(F)(F)C(F)(F)C(F)(F)C(F)(F)C(F)(F)C(F)(F)F` ?
Given back: 1.02

Asked: Then what about the compound `CCN(CC)c1c([N+](=O)[O-])cc(C(F)(F)F)c(N)c1[N+](=O)[O-]` ?
Given back: 0.982

Asked: Then what about the compound CC(C)(C)C(O)C(Oc1ccc(Cl)cc1)n1cncn1 (stereo not given) ?
Given back: 0.998

Asked: Then what about the compound `Cc1occc1C(=O)Nc1ccccc1` ?
Given back: 0.977

====

test system: Parabacteroides merdae; experiment: growth AUC relative to DMSO control (median of replicates) (fraction); higher = more growth (less inhibition), active = hit call of the paper; conditions: 20 µM; 24 h
Assign label 1 whenever growth AUC does not fall below 1; assign label 0 whenever it does.

Here's what some known entries look like.
{"compound": "COP(=S)(OC)Oc1nc(Cl)c(Cl)cc1Cl", "testedTarget": "Parabacteroides merdae", "qualitativeLabel": "label 0"}
{"compound": "Cc1cc(C2CC2)nc(Nc2ccccc2)n1", "testedTarget": "Parabacteroides merdae", "qualitativeLabel": "label 0"}
{"compound": "CO/N=C(/C(=O)OC)c1ccccc1COc1ccccc1C", "testedTarget": "Parabacteroides merdae", "qualitativeLabel": "label 0"}

Asked: Please tell me: is the compound `CCOP(=S)(OCC)Oc1cc(Cl)c(Br)cc1Cl` at or over 1 in terms of growth AUC?
Given back: label 0

====

tested on: Bacteroides caccae; assay: growth AUC relative to DMSO control (median of replicates) (fraction); higher = more growth (less inhibition), active = hit call of the paper; details: 20 µM; 24 h;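 active = AUC reduced over 20% with Padj below 0.05 in at least 2 of 3 replicates; inactive = otherwise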
The reply should be one of these categories: active, inactive

Here's what some known entries look like.
{"compound": "O=C(O)COc1nc(Cl)c(Cl)cc1Cl", "testedTarget": "Bacteroides caccae", "qualitativeLabel": "inactive"}
{"compound": "C#CCN1CC(=O)N(COC(=O)C2C(C=C(C)C)C2(C)C)C1=O (mixture of isomers)", "testedTarget": "Bacteroides caccae", "qualitativeLabel": "inactive"}
{"compound": "COP(=O)(OC)O/C(=C\\Cl)c1ccc(Cl)cc1Cl", "testedTarget": "Bacteroides caccae", "qualitativeLabel": "inactive"}
{"compound": "C=CCC1=C(C)C(OC(=O)[C@@H]2[C@@H](C=C(C)C)C2(C)C)CC1=O (stereo partly drawn)", "testedTarget": "Bacteroides caccae", "qualitativeLabel": "inactive"}
{"compound": "CCCCN(CC)c1c([N+](=O)[O-])cc(C(F)(F)F)cc1[N+](=O)[O-]", "testedTarget": "Bacteroides caccae", "qualitativeLabel": "inactive"}
{"compound": "c1cc2ccc3cccc4ccc(c1)c2c34", "testedTarget": "Bacteroides caccae", "qualitativeLabel": "inactive"}

Asked: # fetch the recorded call for `COCCN(C(=O)CCl)c1c(C)cccc1C` here
Given back: inactive

Asked: Then what about the compound CNC(=O)ON=C(C)C(C)SC (stereo not drawn) ?
Given back: active

Asked: Then what about the compound `CON(C)C(=O)Nc1ccc(Cl)cc1` ?
Given back: inactive

Asked: Then what about the compound COP(=S)(NC(C)C)Oc1ccc(C)cc1[N+](=O)[O-] (stereo not drawn) ?
Given back: inactive

Asked: Then what about the compound `C=CCN(CC=C)C(=O)C(Cl)Cl` ?
Given back: inactive

Asked: Then what about the compound `CCOP(=S)(OCC)SCSCC` ?
Given back: inactive

Asked: Then what about the compound `CCCN(CCOc1c(Cl)cc(Cl)cc1Cl)C(=O)n1ccnc1` ?
Given back: inactive

Asked: Then what about the compound `CCOC(=O)N(C)C(=O)CSP(=S)(OCC)OCC` ?
Given back: inactive

====

test system: Roseburia intestinalis; assay: growth AUC relative to DMSO control (median of replicates) (fraction); higher = more growth (less inhibition), active = hit call of the paper; conditions: 20 µM; 24 h
Each entry below lists one item and its recorded growth AUC value.
// return a plain number; no unit text

Sample records with growth AUC:
{"compound": "CCCN(CC1CC1)c1c([N+](=O)[O-])cc(C(F)(F)F)cc1[N+](=O)[O-]", "parameterMeasured": "growth AUC", "experimentalValue": 1.06}
{"compound": "CC(C1CC1)C(O)(Cn1cncn1)c1ccc(Cl)cc1 (mixture of isomers)", "parameterMeasured": "growth AUC", "experimentalValue": 1.06}
{"compound": "N#CCNC(=O)c1cnccc1C(F)(F)F", "parameterMeasured": "growth AUC", "experimentalValue": 1}
{"compound": "O=C(O)c1nc(Cl)ccc1Cl", "parameterMeasured": "growth AUC", "experimentalValue": 1.07}

Okay, now this compound:
Asked: Recorded growth AUC for `COC(=O)c1sccc1S(=O)(=O)NC(=O)Nc1nc(C)nc(OC)n1` , please?
Given back: 0.947
